- System: 171881-019-R-J1-PDC tumor spheroids, viability;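 note: spheroids exposed to compounds for 7 days; 100% = DMSO vehicle control viability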
- assay-procedure: Anticancer human tumor 171881-019-R-J1-PDC patient-derived invasive breast carcinoma cell line growth inhibition [GQUAD]; active = viability on the fitted dose curve at most 10% of control; inactive = the rest
- condition-notes: second compound 3.16 µM; first compound 10 µM; spheroids with HUVEC and MSC
Your response should consist of one outcome taken from true (1) for active, false (0) for inactive

Before answering, review these 3 worked examples.
CCCS(=O)(=O)Nc1ccc(F)c(C(=O)c2c[nH]c3ncc(-c4ccc(Cl)cc4)cc23)c1F + Cc1cnc(CNC(=O)c2c(=O)c3ccc(N4CCCN(C)CC4)nc3n3c2sc2ccccc23)cn1	false (0)
CC1COCCN1c1cc(C2(O)CC3CCC(C2)O3)c2cnn(-c3ccn[nH]3)c2n1 (stereo not given) + Cc1[nH]c2ccc(F)cc2c1-c1nc2c3cccnc3c3ncccc3c2[nH]1	true (1)
C=CCn1c(=O)c2cnc(Nc3ccc(N4CCN(C)CC4)cc3)nc2n1-c1cccc(C(C)(C)O)n1 + CN(C)c1ccc(Nc2c3ccc(NC(=O)CCN4CCCC4)cc3nc3cc(NC(=O)CCN4CCCC4)ccc23)cc1	true (1)

q: Could you please tell me the result logged for COc1ncnc(C2CC2)c1-c1ncc2cnn(Cc3ccc(-c4nc(C(F)(F)F)cn4C(C)C)cc3)c2n1 + Cc1[nH]c2ccc(F)cc2c1-c1nc2c3cccnc3c3ncccc3c2[nH]1 in this assay?
a: true (1)

q: Could you please tell me the result logged for COc1ncnc(C2CC2)c1-c1ncc2cnn(Cc3ccc(-c4nc(C(F)(F)F)cn4C(C)C)cc3)c2n1 + Cc1cnc(CNC(=O)c2c(=O)c3ccc(N4CCCN(C)CC4)nc3n3c2sc2ccccc23)cn1 in this assay?
a: false (0)
